- Tested on: T. gondii tachyzoites
- Test: T. gondii tachyzoite proliferation assay in HS68 cells (tachyzoite count)
- Type: cell-based, Toxoplasma gondii
- Experimental context: Toxoplasma gondii; RH strain T. gondii in HS68 cells, 48-well plate, 48-72 hours post-infection; mean+/-SEM; read-out: IC50 (uM) Tachyzoite Count
Property: IC50
Please state the number and follow it with the unit.

Task: Requested read-out: IC50. Entry: O=C(CCCCCN1C(=O)c2cccc3cccc(c23)C1=O)NO
Result: 0.039 µM

Let's switch to this compound now.
Task: Requested read-out: IC50. Entry: CCCC(CCC)C(=O)[O-].[Na+] [Valproic acid, sodium valproate]
Result: 1600 µM

---

- Test system: T. gondii tachyzoites
- Test: T. gondii tachyzoite proliferation assay in HS68 cells (tachyzoite count)
- Type: cell-based, Toxoplasma gondii
- Experimental context: Toxoplasma gondii, Hs68, read-out: IC50 range of carboxylate inhibitors
Property: IC50

Task: Give T. gondii tachyzoites IC50 for CCCC(=O)[O-].[Na+] [Sodium butyrate, sodium butyrate]
Result: 1000 to 5000 µM

---

- Test system: T. gondii tachyzoites
- Test: T. gondii tachyzoite proliferation assay in HS68 cells (tachyzoite count)
- Assay type: cell-based, Toxoplasma gondii
- Experimental context: Toxoplasma gondii, Hs68, read-out: IC50 (uM) Tachyzoite Count
Property: IC50 (µM)
Dear colleague, please return just the value in µM, with no unit written.

Task: Requested read-out: IC50. Entry: CCCC(=O)[O-].[Na+] [Sodium butyrate, sodium butyrate]
Result: 1000
